Origin of values: ChEMBL document CHEMBL4251634

- System: Aspergillus niger
- assay-comment: Antifungal activity against Aspergillus niger assessed as diameter of inhibition zone at 50 ug/well after 48 hrs by agar well diffusion method
- Type: functional
- experimental-parameters: read-out: DIZ
Class key for zone of inhibition at 50 µg/disc values: bin 1 = under 20 mm, bin 2 = from 20 mm up to 30 mm, bin 3 = 30 mm and over

Examples from the recorded data:
molecule: Cc1ccc(-c2nnc(CSc3cc(C)nc(SCc4nnc(-c5ccc(C)cc5)o4)n3)o2)cc1
discrete-label: bin 1
--
molecule: Cc1cc(SCc2nnc(-c3ccc([N+](=O)[O-])cc3)o2)nc(SCc2nnc(-c3ccc([N+](=O)[O-])cc3)o2)n1
discrete-label: bin 2
--
molecule: Cc1cc(SCc2nnc(-c3ccc([N+](=O)[O-])cc3)n2N)nc(SCc2nnc(-c3ccc([N+](=O)[O-])cc3)n2N)n1
discrete-label: bin 3
--
molecule: Cc1cc(SCc2nnc(-c3ccccc3)o2)nc(SCc2nnc(-c3ccccc3)o2)n1
discrete-label: bin 1
--
molecule: Cc1cc(SCc2nnc(-c3ccc(Cl)cc3)o2)nc(SCc2nnc(-c3ccc(Cl)cc3)o2)n1
discrete-label: bin 2
--
molecule: Cc1cc(SCc2nnc(-c3ccc(Br)cc3)n2N)nc(SCc2nnc(-c3ccc(Br)cc3)n2N)n1
discrete-label: bin 3
--
molecule: Cc1ccc(-c2nnc(CSc3cc(C)nc(SCc4nnc(-c5ccc(C)cc5)n4N)n3)n2N)cc1
discrete-label: bin 1
--
molecule: Cc1cc(SCc2nnc(-c3ccc(Cl)cc3)s2)nc(SCc2nnc(-c3ccc(Cl)cc3)s2)n1
discrete-label: bin 2
--
molecule: Cc1cc(SCc2nnc(-c3ccc(Br)cc3)o2)nc(SCc2nnc(-c3ccc(Br)cc3)o2)n1
discrete-label: bin 1
--
molecule: Cc1ccc(-c2nnc(CSc3cc(C)nc(SCc4nnc(-c5ccc(C)cc5)s4)n3)s2)cc1
discrete-label: bin 1

# bin lookup: classify Cc1cc(SCc2nnc(-c3ccc([N+](=O)[O-])cc3)s2)nc(SCc2nnc(-c3ccc([N+](=O)[O-])cc3)s2)n1 by its zone of inhibition at 50 µg/disc
bin 3

# bin lookup: classify CC(=O)N1CCN(c2ccc(OCC3COC(Cn4ccnc4)(c4ccc(Cl)cc4Cl)O3)cc2)CC1 (configuration not stated) by its zone of inhibition at 50 µg/disc
bin 3

# bin lookup: classify Cc1cc(SCc2nnc(-c3ccccc3)n2N)nc(SCc2nnc(-c3ccccc3)n2N)n1 by its zone of inhibition at 50 µg/disc
bin 2

# bin lookup: classify Cc1cc(SCc2nnc(-c3ccc(Cl)cc3)n2N)nc(SCc2nnc(-c3ccc(Cl)cc3)n2N)n1 by its zone of inhibition at 50 µg/disc
bin 3

# bin lookup: classify Cc1cc(SCc2nnc(-c3ccccc3)s2)nc(SCc2nnc(-c3ccccc3)s2)n1 by its zone of inhibition at 50 µg/disc
bin 1

# bin lookup: classify COc1ccc(-c2nnc(CSc3cc(C)nc(SCc4nnc(-c5ccc(OC)cc5)n4N)n3)n2N)cc1 by its zone of inhibition at 50 µg/disc
bin 1

# bin lookup: classify Cc1cc(SCc2nnc(-c3ccc(Br)cc3)s2)nc(SCc2nnc(-c3ccc(Br)cc3)s2)n1 by its zone of inhibition at 50 µg/disc
bin 2
